Collected response values appear next to each entry.
B1: Sis1-WT [yeast] / Ssa1-WT [yeast] (parent complex)
chain 1: MVKETKLYDLLGVSPSANEQELKKGYRKAALKYHPDKPTGDTEKFKEISEAFEILNDPQKREIYDQYGLEAARSGGPSFGPGGPGGAGGAGGFPGGAGGFSGGHAFSNEDAFNIFSQFFGGSSPFGGADDSGFSFSSYPSGGGAGMGGMPGGMGGMHGGMGGMPGGFRSASSSPTYPEEETVQVNLPVSLEDLFVGKKKSFKIGRKGPHGASEKTQIDIQLKPGWKAGTKITYKNQGDYNPQTGRRKTLQFVIQEKSHPNFKRDGDDLIYTLPLSFKESLLGFSKTIQTIDGRTLPLSRVQPVQPSQTSTYPGQGMPTPKNPSQRGNLIVKYKVDYPISLNDAQKRAIDENF
chain 2: not shown

- Variants of: B1
- method: ELISA; Ssa1 (200 nM) immobilized; Sis1 at 20 nM; detection with αSis1 antibody; parent: 130; read off a plot

mutations: chain 1 E53A
outcome measure: response
result: ~78 Abs 450nm

What the record says about chain 1 N56L : response is ~75 Abs 450nm

What the record says about chain 1 E53K : response is ~97 Abs 450nm

What the record says about chain 1 S49V : response is ~82 Abs 450nm
